Kindly supply the reported Relative peak area, in 7 days values for the records listed here.
protocol: Stability, 7 days at T = 60° C.
Assay type: physicochemical
details: 7 days at T = 60° C.
Write the number in % without appending the unit.

// CS(=O)(=O)O.Cc1ccc(C(=O)Nc2ccc(CN3CCN(C)CC3)c(C(F)(F)F)c2)cc1C#Cc1nnc2ccccn12 [methanesulfonic acid salt] : Relative peak area, in 7 days value = 99.7

// Cc1ccc(C(=O)Nc2ccc(CN3CCN(C)CC3)c(C(F)(F)F)c2)cc1C#Cc1nnc2ccccn12.O=C(O)/C=C/C(=O)O : Relative peak area, in 7 days value = 99.9

// Cc1ccc(C(=O)Nc2ccc(CN3CCN(C)CC3)c(C(F)(F)F)c2)cc1C#Cc1nnc2ccccn12.Cc1ccc(S(=O)(=O)O)cc1 : Relative peak area, in 7 days value = 99.9

// Cc1ccc(C(=O)Nc2ccc(CN3CCN(C)CC3)c(C(F)(F)F)c2)cc1C#Cc1nnc2ccccn12.Cl : Relative peak area, in 7 days value = 99.9

// Cc1ccc(C(=O)Nc2ccc(CN3CCN(C)CC3)c(C(F)(F)F)c2)cc1C#Cc1nnc2ccccn12 [free base] : Relative peak area, in 7 days value = 99.7
